Where these numbers come from: PubChem BioAssay (NCI)

- System: SF-295 CNS
- assay_summary: NCI tumour cell line growth inhibition, 48 h
Give TGI for every item shown.

O=C(CCBr)N1CCN(C(=O)CCBr)CC1 = 212 µM
CCCCCCSc1nc(N)nc2nc[nH]c12 = > 100 µM
CSc1ncc2c(n1)-c1ccccc1OC2N1CCOCC1 (stereo not given) = > 100 µM
Nc1nc(NCCOCP(=O)(O)O)c([N+](=O)[O-])c(=O)[nH]1 = > 100 µM
O=[N+]([O-])c1cc(-c2nc(=S)[nH][nH]2)ccc1O = > 100 µM

Provide TGI for all items below, preserving their order.
1. Cc1ccc(S(=O)(=O)N2CCC[C@@H]2C(=O)O[C@@H]2CCC3CC=CC32)cc1 (stereo not given in full)
2. Cc1ccc([Se](=C(C(=O)c2ccccc2)C(=O)c2ccccc2)c2ccc(C)cc2)cc1
3. COC1/C=C/C=C(/C)Cc2cc(O)c(Cl)c(c2)N(C)C(=O)CC(OC(=O)C(C)C)C2(C)OC2C(C)C2CC1(O)NC(=O)O2 (stereo not given)
4. COc1ccc(Nc2nc3cc(C(F)(F)F)ccc3nc2-c2ccccc2)cc1OC
5. COc1ccc(-c2coc3cc(O)ccc3c2=O)cc1

> 100 µM
66.5 µM
> 100 µM
53.3 µM
> 100 µM

* * *

Task for the reader: assign each of the following compounds its reported TGI.
- Tested on: CAKI-1 renal
- assay_summary: NCI tumour cell line growth inhibition, 48 h
Give bare numbers, in µM.

State the recorded TGI for every item in the following list.
1. C[C@@H](N)COc1ccc(-c2cnc3ccc(N[C@H](C)c4cccc(F)c4)nn23)cc1
2. CCCCCCCCCCNCCSSCc1ccc(Cl)cc1
3. CN1CCN(C(=O)CCC(=O)Nc2cc3c(c4ccccc24)-c2ccc4ccccc4c2C3)CC1
4. CCCCCCCCCCCCCC[n+]1ccccc1

[11, 7.15, 3.16, 5.43]

* * *

Would you kindly list TGI for each of these molecules?
- Tested on: DMS 114 small cell lung
- assay_summary: NCI tumour cell line growth inhibition, 48 h

COC1OCC(O)C(NC(=O)N(C)N=O)C1O (stereo unspecified) = > 100 µM
COc1cccc(C=O)c1C(=O)c1cc(O)ccc1O = > 48.2 µM
COc1cccc2c1C(=O)c1c(O)c3c(c(O)c1C2=O)C[C@@](O)(C(C)=O)CC3S(=O)(=O)O (stereo partly specified) = > 100 µM
COC(=O)[C@H]1COC(=S)N1C(=O)[C@@H](C)[C@H](O)C(C)C = > 100 µM
CC1CCC2C(C)C(=O)OC3OC4(C)CCC1C32OO4 (stereo unspecified) = > 100 µM
CC1=NN(C(=O)Cc2ccccc2)C(=O)/C1=C\c1ccc([N+](=O)[O-])cc1 = > 100 µM
Cc1[nH]c(=O)nc(N/N=C/c2ccc(O)cc2)c1C(=O)Nc1ccc(O)cc1 = > 100 µM
CC[C@@]1(O)C[C@H](OC2CC(N(C)C)C(O)C(C)O2)c2c(cc3c(c2O)C(=O)c2c(O)ccc(O)c2C3=O)[C@H]1C(=O)OC (stereo partly specified) = 0.489 µM

Below are 8 molecules. Give each one its TGI.
1. N/C=N/S(=O)(=O)c1ccc(NC(=O)COC(=O)c2cccc3c(=O)c4ccccc4[nH]c23)cc1
2. CN1C(=O)CC2(C)c3cc(O)cc(Br)c3N(C)C12 (stereo unspecified)
3. CN(C)CCNC(=O)c1cccc2ccc(-c3ccc(Br)cc3)nc12
4. N#CC1C[C@@H]2CC3(CCC2CN1C(=O)c1ccccc1)OCCO3 (stereo partly specified)
5. CC1(C)OC[C@H](C(=N)OCc2ccccc2)O1
6. CC(=O)c1ccccc1NC(=O)C(=O)C(C(=O)c1ccc2ccccc2c1)C1OC(=O)c2ccccc21 (stereo unspecified)
7. O=C(Cc1ccccc1[N+](=O)[O-])C(CO)c1ccccc1[N+](=O)[O-] (stereo unspecified)
8. COC(=O)Cc1c([C@@]2(C)CCCC(C)(C)C2)ccc2c1C(=O)OC2

> 100 µM
> 100 µM
9.8 µM
> 100 µM
> 100 µM
43 µM
> 100 µM
20.4 µM

* * *

- Tested on: NCI-H522 lung
- assay_summary: NCI tumour cell line growth inhibition, 48 h
reported_metric: log10(TGI) (log10 of the value in µM)
Answers are given as log10 of TGI in µM.

COc1cc(C2c3cc4c(cc3OC(NNC(N)=O)C2C)OCO4)cc(OC)c1OC (stereo not drawn) = -0.46
COc1ccc2c(c1)Oc1cc(O)ccc1[C@H]2c1ccccc1C(=O)NC(C)c1ccccc1 (stereo partly drawn) = 1.45

Each of the following entries comes with a recorded value; kindly state log10(TGI) for each.
1. CN(C)Cc1c(O)ccc2c1c1c(n2C)C(=O)c2ccccc2C1=O
2. CCOC(=O)c1[nH]cc(C)c1-c1cccn1-c1ccc(Cl)cc1[N+](=O)[O-]

1: 1.32; 2: 1.54

Provide log10(TGI) values for the following items, in order.
1. CCOC(=O)/C=C(/C(=O)OCC)n1cc(C)c(=O)n(Cc2cnnn2COCCOC(C)=O)c1=O
2. CC(=O)c1ccccc1NC(=O)C(=O)C(C(=O)c1ccc2ccccc2c1)C1OC(=O)c2ccccc21 (stereo not drawn)
3. COC1=CC(c2ccc[nH]2)=N/C1=C\c1[nH]c(C)c(C(=O)CCC(=O)Oc2ccc3c(c2)CCC2C3CC[C@]3(C)[C@@H](O)CC[C@@H]23)c1C (stereo partly drawn)
4. Clc1ccc(CCNC2(c3cc4ccccc4s3)CCCCC2)cc1Cl
5. CCc1cc(C)cc2[n+]1CC=C2
6. CCC12CCCN(Cc3ccccc3)C1c1c(n(C)c3ccccc13)C(CO)C2 (stereo not drawn)

1. 0.56
2. 1.47
3. 0.81
4. 1.64
5. 1.72
6. 1.82

Required: log10(TGI), one value per molecule below.
1. CNC(=O)c1nn(C)c2c1C(C)(C)Cc1cnc(Nc3cccc(N4CCN(C)CC4)c3)nc1-2
2. CC[C@@]1(O)C[C@H](OC2CC(N(C)C)C(O)C(C)O2)c2c(cc3c(c2O)C(=O)c2c(O)ccc(O)c2C3=O)[C@H]1C(=O)OC (stereo partly drawn)
3. COC1=C[C@]2(CCC(=O)O2)[C@@H]2Cc3ccccc3[C@H](O)[C@@H]2C1=O
4. CC(=O)C1=C(C)O[C@@H]2O[C@H](COCc3ccccc3)[C@@H](OCc3ccccc3)[C@H](O)[C@@H]2S1
5. O=C1CC(/C=C/c2ccco2)=C(O)C1=O
6. O=C(C=Nc1ccccc1C(=O)[O-])c1cccs1.O=C(C=Nc1ccccc1C(=O)[O-])c1cccs1.[Ni+2]
7. COc1cc2c3c(n(CCCN4CCNCC4)c(=O)c2cc1OC)-c1cc2c(cc1C3=O)OCO2
8. O=C1Nc2ccccc2/C1=C\c1c(-c2ccccc2)nc2sccn12

[1.05, -0.30, 1.65, 1.49, 1.50, 1.74, 1.20, 1.16]

* * *

- System: UO-31 renal
- assay_summary: NCI tumour cell line growth inhibition, 48 h; in the data active means GI50 below about 0.43 µM; inactive means the rest
Classes to choose from: Yes (active), No (inactive)

Here are 10 compounds together with their reported answers.
CCn1c(-c2nonc2N)nc2c(C#CC(C)(C)O)ncc(OC3CCNCC3)c21 = No
O=C(c1ccccc1)C(Cl)C(Cl)c1ccccc1 (configuration not stated) = No
Cc1ccc([P+](Cc2ccccc2)(c2ccccc2)c2ccccc2)cc1 = No
Cc1ccc(-c2nc3nc(-c4ccc(F)cc4)nc(N4CCNCC4)c3o2)cc1 = No
COc1ccc(/C=C/C(=O)c2c(O)ccc3c(C)c(C(=O)O)oc23)cc1 = No
O=C1Nc2ccccc2/C1=C\c1c(-c2ccccc2)nc2sccn12 = No
N#Cc1c(NCc2ccccc2)nc(NCc2ccccc2)c(C#N)c1-c1ccc(Cl)cc1 = No
O=C([O][Hg][c]1ccccc1)c1ccccc1 = No
NC(=O)c1cccc2c(N[C@H](CN3CCC3)c3ccc(Cl)c(C(F)(F)F)c3)ncnc12 = Yes
CN(C)C1CCN(Cc2ccc(NC(=O)c3cncc(C#Cc4cnc(N)c5ncccc45)c3)cc2C(F)(F)F)CC1 = No

What was the test verdict on "COC(=O)c1cc(NC(=O)c2cc(NC(=O)c3cc([N+](=O)[O-])n(C)c3)cn2C)cn1C" ? No

Hi team, can someone confirm the assay call for "OCc1ccc(-c2csc(-c3ccc(CO)o3)c2)o1" ? No

Lab log entry: "COc1cc2c3c(n(CCCN4CCNCC4)c(=O)c2cc1OC)-c1cc2c(cc1C3=O)OCO2" — outcome as called in the assay? No

Dear all, I need the recorded test outcome for "C/C(=N\NC(=S)N1CCN(c2ccccn2)CC1)c1ccccn1" , thank you. Yes

Which result was noted for this compound in the test: "CS(=O)(=O)N1CCC(n2c(=O)c(Oc3ccc(F)cc3F)cc3cnc(NC4CCOCC4)nc32)CC1" No

Please state the recorded outcome for this compound: "C/C(CCC(=O)O)=N/Nc1ccc([N+](=O)[O-])cc1" No

Recorded test outcome, item "CC(c1cc(Cl)ccc1O)c1cc(Cl)ccc1O" No
